src = the supplement of paper PMC10065799

target.or.system: SHP2-C SH2;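 also: peptide library displayed on the E. coli surface as eCPX fusions, selected cells deep-sequenced, score is each peptide's frequency after selection divided by its frequency in the input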
measurement.notes: SH2 binding enrichment of the phosphorylated peptide, bacterial display (enrichment ratio); higher = better substrate or ligand; peptides without Tyr show the background
endpoint: SH2 binding enrichment

Example entries begin here.
[[record]]
sequence_entry = "IGSHAYGDQFR [IDH1_Y135_R132S_YF]"
recorded_number = 0.96

[[record]]
sequence_entry = "FDFKKYGKGLR [ZNF445_Y433_YF]"
recorded_number = 0.751

[[record]]
sequence_entry = "FVSAAYVKKLD [SPTAN1_Y1020_P1017S]"
recorded_number = 0.804

[[record]]
sequence_entry = "VTRLRYPVCFG [ITK_Y336]"
recorded_number = 1.01


[a] ASTDFNKRGDF [PDHA1_Y243_Y243N_YF]
[b] EFLRNYFTDKA [DSG2_Y775]
[c] TIAIRYSHSRR [ACOXL_Y260]
Incoming: Ascending by SH2 binding enrichment, please. Output the labels ranked as instructed.
Outgoing: c, a, b

###

Tested on: c-Src
measurement.notes: phosphorylation enrichment, bacterial display (enrichment ratio); higher = better substrate or ligand; peptides without Tyr show the background
endpoint: phosphorylation enrichment
Answer as a number with no unit attached.

// solved cases for phosphorylation enrichment follow
[[record]]
sequence_entry = "FTRNFYVWAVL [CYBA_Y88_R90W_YF]"
target_or_system = "c-Src"
recorded_number = 0.508

[[record]]
sequence_entry = "ETPSEYLEIVR [TMEM130_Y412]"
target_or_system = "c-Src"
recorded_number = 0.49


Incoming: GET /values?readout=phosphorylation enrichment&item= AEMTGYVVTRW [MAPK13_Y182]
Outgoing: 0.486

Incoming: Value lookup for phosphorylation enrichment; key = KNAEKYAEEDW [HSPA9_Y568_R573W]
Outgoing: 0.51

Incoming: Need phosphorylation enrichment of GFWPRYVKVGS [NOG_Y172_R167G] , thanks.
Outgoing: 0.402

Incoming: GET /values?readout=phosphorylation enrichment&item= FPLELYERVRM [PRKCG_Y312_YF]
Outgoing: 0.488

Incoming: So what does the record say about phosphorylation enrichment for IRRWVYPLTPE [EIF2B5_Y319] ?
Outgoing: 0.437

Incoming: Name the recorded phosphorylation enrichment for AKKKMYSCKTK [AGXT_Y231_R233C] .
Outgoing: 0.474

Incoming: phosphorylation enrichment for TDGIAYEFRVT ?
Outgoing: 0.491

Incoming: Any idea what its phosphorylation enrichment is? The sequence is FLAVGYHKLHI [IDS_Y225_P228L]
Outgoing: 0.462

Incoming: Can you share its phosphorylation enrichment? I mean this sequence: LAAPKYKLNVD [SMARCA2_Y1190_A1188P]
Outgoing: 0.44

Incoming: What phosphorylation enrichment value was documented for this sequence, IDPFIYTPFGS [CYP3A4_Y432_YF] ?
Outgoing: 6.49

Incoming: For the sequence CTTIQYNYMCN [TP53_Y234_H233Q] , what phosphorylation enrichment is on record?
Outgoing: 0.441

###

target.or.system: Fyn (UniProt P06241)
Sequence (P06241 whole entry, looked up): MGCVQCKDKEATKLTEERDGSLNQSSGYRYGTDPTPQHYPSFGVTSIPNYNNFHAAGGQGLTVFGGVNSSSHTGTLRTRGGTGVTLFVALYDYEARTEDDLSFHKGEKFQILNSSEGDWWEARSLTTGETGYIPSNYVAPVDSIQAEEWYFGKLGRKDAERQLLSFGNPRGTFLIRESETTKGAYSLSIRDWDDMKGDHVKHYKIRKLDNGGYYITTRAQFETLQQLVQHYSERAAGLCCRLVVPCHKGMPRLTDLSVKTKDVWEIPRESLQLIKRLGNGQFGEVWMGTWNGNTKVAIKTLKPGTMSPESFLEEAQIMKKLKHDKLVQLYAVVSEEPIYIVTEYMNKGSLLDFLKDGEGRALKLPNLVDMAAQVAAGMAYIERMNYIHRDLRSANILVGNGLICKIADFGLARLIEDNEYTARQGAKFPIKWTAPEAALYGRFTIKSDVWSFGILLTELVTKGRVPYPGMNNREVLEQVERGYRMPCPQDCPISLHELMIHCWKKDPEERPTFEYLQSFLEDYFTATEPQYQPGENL
measurement.notes: phosphorylation enrichment, bacterial display (enrichment ratio); higher = better substrate or ligand; peptides without Tyr show the background
endpoint: phosphorylation enrichment
Hey, just send me the number, nothing else.

Solved cases (3 shown):
[[record]]
sequence_entry = "HRGFLYLAIEY [TEK_Y899_Y897F]"
recorded_number = 0.54

[[record]]
sequence_entry = "PVPKTYDMLKA [PKP2_Y108]"
recorded_number = 0.764

[[record]]
sequence_entry = "NGSKGYAYVHF [PABPC5_Y147]"
recorded_number = 0.493


Incoming: Value wanted: phosphorylation enrichment (Fyn (UniProt P06241)) of entry QRPFVYFFSFL [PTEN_Y176_R173P_YF]
Outgoing: 0.721

Incoming: Could you share what phosphorylation enrichment was measured for PLRAFYLIARV [HLCS_Y635_D634Y_YF] , tested on Fyn (UniProt P06241)?
Outgoing: 0.92

Incoming: Item AVEDQYYRVDC [FHL1_Y207_C209R] with Fyn (UniProt P06241) - phosphorylation enrichment?
Outgoing: 0.982

Incoming: Any idea what phosphorylation enrichment came out for HRNGMYGLHQD [SGSH_Y89_Q85R] on Fyn (UniProt P06241)?
Outgoing: 0.49

Incoming: Request body: readout phosphorylation enrichment, system Fyn (UniProt P06241), query LSDGPYSNPFE [EPOR_Y485_YF] . Return the value.
Outgoing: 1.77

Incoming: Hello, I am looking for reported phosphorylation enrichment with Fyn (UniProt P06241) for GKVFIYHGSSL [ITGA7_Y458] . Could you help?
Outgoing: 0.42

Incoming: Missing value: phosphorylation enrichment, Fyn (UniProt P06241), entry AAFNKYDQERF [CDC73_Y293_R292K_YF] . Fill in?
Outgoing: 0.485

Incoming: Param readout= phosphorylation enrichment; system= Fyn (UniProt P06241); entry= SFCFRYRCAAQ [SUMF1_Y344_R349Q_YF] ; returns value.
Outgoing: 0.411

Incoming: For Fyn (UniProt P06241), provide phosphorylation enrichment of AGRTGYDNREI [BCL2_Y9] please.
Outgoing: 0.427

Incoming: What reported phosphorylation enrichment corresponds to AATTAYSKPKR [MAP3K7_Y405] on Fyn (UniProt P06241)?
Outgoing: 0.281

Incoming: Param readout = phosphorylation enrichment; param system = Fyn (UniProt P06241); param query = EVVGRYSVHNA [MLH1_Y183] ; response: value
Outgoing: 0.487

Incoming: // lookup phosphorylation enrichment | system=Fyn (UniProt P06241) | key= PQAVRYIYTID [DCX_Y103_G100A]
Outgoing: 7.37

Incoming: Form field: phosphorylation enrichment recorded for ICFSDYVEVAD [PHACTR1_Y525_R521C] with Fyn (UniProt P06241) (enter value)
Outgoing: 0.555

Incoming: Kindly state the measured phosphorylation enrichment obtained for LVRPPYSYSAL [FOXI1_Y126] with Fyn (UniProt P06241).
Outgoing: 0.722

Incoming: For Fyn (UniProt P06241), provide phosphorylation enrichment of QSKGIYFVQLE [MGAT4B_Y262_YF] please.
Outgoing: 1.1

###

phosphorylation enrichment values, listed per item
target.or.system: EPHB2 (UniProt P29323)
Sequence (P29323 whole entry, looked up): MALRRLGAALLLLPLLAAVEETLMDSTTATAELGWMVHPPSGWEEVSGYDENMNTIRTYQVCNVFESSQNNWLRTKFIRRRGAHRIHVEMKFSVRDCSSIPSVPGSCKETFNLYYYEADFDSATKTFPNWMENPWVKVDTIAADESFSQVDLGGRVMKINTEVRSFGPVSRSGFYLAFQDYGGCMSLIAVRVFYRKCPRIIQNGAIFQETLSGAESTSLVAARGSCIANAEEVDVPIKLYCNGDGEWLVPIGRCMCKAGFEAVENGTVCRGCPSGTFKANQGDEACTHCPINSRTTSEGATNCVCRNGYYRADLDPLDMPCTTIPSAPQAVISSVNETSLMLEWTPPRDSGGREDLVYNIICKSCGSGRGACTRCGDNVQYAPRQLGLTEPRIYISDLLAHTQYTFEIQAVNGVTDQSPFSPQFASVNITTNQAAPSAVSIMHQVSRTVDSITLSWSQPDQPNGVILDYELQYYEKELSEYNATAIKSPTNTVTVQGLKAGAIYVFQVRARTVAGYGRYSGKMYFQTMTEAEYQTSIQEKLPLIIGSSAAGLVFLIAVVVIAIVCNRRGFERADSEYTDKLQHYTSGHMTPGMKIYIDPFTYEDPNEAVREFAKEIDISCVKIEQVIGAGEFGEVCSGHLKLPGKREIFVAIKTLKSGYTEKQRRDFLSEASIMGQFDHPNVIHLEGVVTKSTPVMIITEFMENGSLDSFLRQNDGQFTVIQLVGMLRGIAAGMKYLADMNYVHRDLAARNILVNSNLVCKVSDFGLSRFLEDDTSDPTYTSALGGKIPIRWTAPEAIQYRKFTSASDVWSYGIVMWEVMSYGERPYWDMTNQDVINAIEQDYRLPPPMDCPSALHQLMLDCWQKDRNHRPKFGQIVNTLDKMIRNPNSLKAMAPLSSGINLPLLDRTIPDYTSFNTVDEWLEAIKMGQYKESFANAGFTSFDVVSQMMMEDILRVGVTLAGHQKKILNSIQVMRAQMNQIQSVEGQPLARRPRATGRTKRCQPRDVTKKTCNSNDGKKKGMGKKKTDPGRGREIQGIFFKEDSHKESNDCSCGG
measurement.notes: phosphorylation enrichment, bacterial display (enrichment ratio); higher = better substrate or ligand; peptides without Tyr show the background
The response must contain the number and no unit.

Solved entries:
[[record]]
sequence_entry = "FLAVGYHMPHI [IDS_Y225_K227M]"
target_or_system = "EPHB2 (UniProt P29323)"
endpoint = "phosphorylation enrichment"
recorded_number = 0.403

[[record]]
sequence_entry = "PLDGEYLTLQI [TP53_Y327_F328L]"
target_or_system = "EPHB2 (UniProt P29323)"
endpoint = "phosphorylation enrichment"
recorded_number = 1.23

[[record]]
sequence_entry = "LPKVSCVKAID [GLRA1_Y307_Y307C]"
target_or_system = "EPHB2 (UniProt P29323)"
endpoint = "phosphorylation enrichment"
recorded_number = 0.711

[[record]]
sequence_entry = "ELTSVYDSRAR [SENP1_Y349]"
target_or_system = "EPHB2 (UniProt P29323)"
endpoint = "phosphorylation enrichment"
recorded_number = 0.507

[[record]]
sequence_entry = "CQKRKYIEIDS [SDAD1_Y580_S575C]"
target_or_system = "EPHB2 (UniProt P29323)"
endpoint = "phosphorylation enrichment"
recorded_number = 0.505

[[record]]
sequence_entry = "AQVDTYCRHNF [HLA-DRB1_Y107_A103Q_YF]"
target_or_system = "EPHB2 (UniProt P29323)"
endpoint = "phosphorylation enrichment"
recorded_number = 0.479


Incoming: I am curious: what phosphorylation enrichment value has been reported for FIAVGYVDDSQ [HLA-A_Y51_T55S] ?
Outgoing: 0.491

Incoming: State the recorded phosphorylation enrichment for this entry: RYMELYDLNRD [BBS2_Y648]
Outgoing: 1.05

###

Tested on: c-Src
measurement.notes: phosphorylation enrichment, bacterial display (enrichment ratio); higher = better substrate or ligand; peptides without Tyr show the background
endpoint: phosphorylation enrichment
Could you keep your reply to the number by itself?

# annotated cases, reported phosphorylation enrichment shown
[[record]]
sequence_entry = "TNYRLYLRSLE [MTM1_Y71]"
recorded_number = 0.504

[[record]]
sequence_entry = "MCTVDYLLRLQ [RYR1_Y3921_I3916M]"
recorded_number = 0.487

[[record]]
sequence_entry = "VREIRCQGGNR [VWF_Y1570_Y1570C]"
recorded_number = 0.5


Incoming: I am curious: what phosphorylation enrichment value has been reported for KEIHAYRKLLE [LMNA_Y376_M371K] ?
Outgoing: 0.506

###

Each entry below lists one item and its recorded phosphorylation enrichment value.
target.or.system: MERTK (UniProt Q12866)
Sequence (Q12866 whole entry, looked up): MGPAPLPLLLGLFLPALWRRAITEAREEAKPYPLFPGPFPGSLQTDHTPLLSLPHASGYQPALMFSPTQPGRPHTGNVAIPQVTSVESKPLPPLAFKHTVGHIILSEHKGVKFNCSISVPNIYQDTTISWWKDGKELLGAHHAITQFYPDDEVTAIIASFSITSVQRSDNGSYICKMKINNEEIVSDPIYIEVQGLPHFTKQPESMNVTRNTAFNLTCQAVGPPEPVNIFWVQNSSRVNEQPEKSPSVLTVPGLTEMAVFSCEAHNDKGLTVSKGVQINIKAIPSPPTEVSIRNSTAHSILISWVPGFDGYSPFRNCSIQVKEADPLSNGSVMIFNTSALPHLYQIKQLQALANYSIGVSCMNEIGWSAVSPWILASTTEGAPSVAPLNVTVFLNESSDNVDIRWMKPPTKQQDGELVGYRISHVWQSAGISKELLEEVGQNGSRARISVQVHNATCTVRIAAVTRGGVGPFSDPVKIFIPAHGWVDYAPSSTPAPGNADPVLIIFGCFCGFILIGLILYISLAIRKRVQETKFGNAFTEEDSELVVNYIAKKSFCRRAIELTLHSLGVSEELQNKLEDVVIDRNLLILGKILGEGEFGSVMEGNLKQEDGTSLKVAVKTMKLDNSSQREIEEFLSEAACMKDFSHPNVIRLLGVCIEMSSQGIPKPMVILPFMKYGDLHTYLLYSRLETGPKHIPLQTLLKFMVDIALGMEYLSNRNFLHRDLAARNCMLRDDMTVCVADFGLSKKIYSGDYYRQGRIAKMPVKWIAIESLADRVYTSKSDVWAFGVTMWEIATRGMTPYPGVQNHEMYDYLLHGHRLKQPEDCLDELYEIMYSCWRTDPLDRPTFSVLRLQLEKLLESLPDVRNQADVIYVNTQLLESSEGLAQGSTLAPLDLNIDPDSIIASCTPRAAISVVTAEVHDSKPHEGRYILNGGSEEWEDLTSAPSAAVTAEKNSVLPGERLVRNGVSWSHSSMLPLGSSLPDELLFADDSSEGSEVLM
measurement.notes: phosphorylation enrichment, bacterial display (enrichment ratio); higher = better substrate or ligand; peptides without Tyr show the background
Respond with the number and no other words.

Known phosphorylation enrichment results, listed for orientation:
[[record]]
sequence_entry = "AEMKRYAESSS [RAI14_Y869]"
endpoint = "phosphorylation enrichment"
recorded_number = 0.336

[[record]]
sequence_entry = "LLKAGYQGVLR [TTPA_Y100_H101Q]"
endpoint = "phosphorylation enrichment"
recorded_number = 0.459

[[record]]
sequence_entry = "ITKQEYDEAGP [ACTA1_Y364]"
endpoint = "phosphorylation enrichment"
recorded_number = 0.423

[[record]]
sequence_entry = "QNWELYSEGLG [CNKSR1_Y665_R662W]"
endpoint = "phosphorylation enrichment"
recorded_number = 2.26

[[record]]
sequence_entry = "GNYSGYDDAWD [POLR1C_Y36]"
endpoint = "phosphorylation enrichment"
recorded_number = 0.637

[[record]]
sequence_entry = "HSFNSYTFPRL [PAK5_Y316_YF]"
endpoint = "phosphorylation enrichment"
recorded_number = 0.55

[[record]]
sequence_entry = "AFGEVYEGQVS [ALK_Y1131]"
endpoint = "phosphorylation enrichment"
recorded_number = 0.442

[[record]]
sequence_entry = "IIWDSYTTNKV [GNB1_Y85]"
endpoint = "phosphorylation enrichment"
recorded_number = 0.356


Incoming: Give the measured phosphorylation enrichment of VVSLFYGTALF [OR10C1_Y251_M246V] .
Outgoing: 0.7

Incoming: Reported phosphorylation enrichment for GLRCGYGVLGG [KRTAP20-2_Y15_Y13C] : what is it?
Outgoing: 0.359

Incoming: For the sequence shown here, APGNAYGDAGY [SYP_Y250_D248N] , give the reported phosphorylation enrichment.
Outgoing: 0.423

Incoming: Using the record for VVTGPYEKPSL [KIR3DS1_Y221_L220P] , report its phosphorylation enrichment.
Outgoing: 0.45
